koff for assorted binders
molecular target: T1, mfNPR1-mFc:hANP complex (monkey; human, UniProt P01160 124-151); assay: SPR, mAb captured, 25C
T1 construct: also called monkey NPR1 complexed to ANP
// note: answer is a bare numeric in s⁻¹

Some solved entries appear below for comparison.
binder="mAb25497 (antibody, human IgG4, V domains shown) VH: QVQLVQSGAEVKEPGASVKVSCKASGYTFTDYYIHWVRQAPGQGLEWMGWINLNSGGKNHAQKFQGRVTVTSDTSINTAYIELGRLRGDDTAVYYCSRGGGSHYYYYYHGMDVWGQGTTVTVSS VL: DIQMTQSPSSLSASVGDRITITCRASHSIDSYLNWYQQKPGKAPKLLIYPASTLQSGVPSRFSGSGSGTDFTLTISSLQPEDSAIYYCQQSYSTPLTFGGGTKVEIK" reported=3.75e-05
binder="mAb25502 (antibody, human IgG4, V domains shown) VH: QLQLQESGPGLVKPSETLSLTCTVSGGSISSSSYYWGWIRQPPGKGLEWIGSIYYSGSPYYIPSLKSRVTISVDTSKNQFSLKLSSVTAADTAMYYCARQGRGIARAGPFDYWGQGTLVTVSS VL: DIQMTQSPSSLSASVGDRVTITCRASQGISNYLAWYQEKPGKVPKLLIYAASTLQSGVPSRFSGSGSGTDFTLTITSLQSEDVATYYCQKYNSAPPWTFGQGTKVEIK" reported=0.000264
binder="mAb25508 (antibody, human IgG4, V domains shown) VH: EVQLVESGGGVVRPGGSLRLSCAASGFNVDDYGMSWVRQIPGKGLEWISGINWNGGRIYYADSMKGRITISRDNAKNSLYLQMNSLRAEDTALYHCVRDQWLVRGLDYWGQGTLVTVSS VL: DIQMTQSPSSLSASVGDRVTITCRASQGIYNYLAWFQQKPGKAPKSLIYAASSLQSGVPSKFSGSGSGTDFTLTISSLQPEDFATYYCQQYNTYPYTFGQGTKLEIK" reported=7.32e-05

koff reported for this binder mAb22805 (antibody, human IgG4, V domains shown) VH: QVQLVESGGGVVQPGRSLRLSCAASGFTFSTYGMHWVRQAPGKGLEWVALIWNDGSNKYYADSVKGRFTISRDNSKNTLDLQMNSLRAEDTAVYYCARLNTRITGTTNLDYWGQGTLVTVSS VL: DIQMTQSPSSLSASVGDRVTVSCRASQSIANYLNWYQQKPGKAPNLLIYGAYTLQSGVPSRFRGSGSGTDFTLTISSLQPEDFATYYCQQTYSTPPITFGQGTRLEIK : 9.51e-05

Ref: patent US20240309103A1
